Target: T1, Arabidopsis thaliana phytochrome B, N-terminal fragment encompassing the N-terminal extension (NTE) and the … (Arabidopsis thaliana, UniProt P14713 1-651, phycocyanobilin chromophore, covalently bound)
T1 construct: Phytochrome B, Arabidopsis thaliana, GenBank CAA35222.1; N-terminal fragment with the NTE and the PCM (nPAS-GAF-PHY), lacking PAS1, PAS2 and the HKRD; source: E. coli LOBSTR, purified (Co2+-NTA IMAC, anion exchange); plasmid also encodes Synechocystis sp. heme oxygenase 1 and PcyA
T1 sequence (looked up): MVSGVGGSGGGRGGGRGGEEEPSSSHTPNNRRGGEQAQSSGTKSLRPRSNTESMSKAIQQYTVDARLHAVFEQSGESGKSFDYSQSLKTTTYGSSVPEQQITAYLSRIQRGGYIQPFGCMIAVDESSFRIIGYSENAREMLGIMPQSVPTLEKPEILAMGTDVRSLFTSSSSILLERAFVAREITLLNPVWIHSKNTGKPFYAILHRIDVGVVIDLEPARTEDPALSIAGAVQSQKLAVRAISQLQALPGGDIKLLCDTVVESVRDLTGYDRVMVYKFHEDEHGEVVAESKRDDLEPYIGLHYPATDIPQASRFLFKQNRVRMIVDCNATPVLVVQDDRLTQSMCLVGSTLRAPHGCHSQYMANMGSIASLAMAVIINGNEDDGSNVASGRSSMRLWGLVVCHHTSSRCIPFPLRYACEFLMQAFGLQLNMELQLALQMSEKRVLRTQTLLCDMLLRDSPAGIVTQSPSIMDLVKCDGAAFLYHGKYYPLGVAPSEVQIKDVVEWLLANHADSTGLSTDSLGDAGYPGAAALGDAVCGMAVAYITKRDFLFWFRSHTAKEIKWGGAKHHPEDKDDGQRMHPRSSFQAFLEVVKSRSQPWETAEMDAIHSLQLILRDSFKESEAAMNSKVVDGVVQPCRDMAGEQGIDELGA
Experiment: FRET or BRET; as a5 (association and dissociation kinetics after a red-light pulse) at several temperatures up to 30 °C; values told for 30 °C or for 30 °C against 15 °C
Details: both partners purified
No end group written: not given here.
assay_endpoint: Kd

// query Can you share its Kd? I mean this binder: DQEYMELVFENGQILAKGQRSNVSLHNQRTKSIMDLYEAE-{mScarlet‑I} (domain or fragment, Arabidopsis thaliana, UniProt Q8L5W7 14-53, looked up, mScarlet-I: GenBank APD76536; source: E. coli LOBSTR, purified (IMAC, SENP2 cleavage, second IMAC, optionally anion exchange); not shown: His6-SUMO, N-terminal, cleaved; mScarlet-I, C-terminal, kept) [P6A-mScarlet-I (Arabidopsis PIF6 residues 14 to 53, APB.A portion, fused to mScarlet-I)]
// result ~900 nM
